Measured pKi, listed per entry.
target: Somatostatin receptor type 3 (Homo sapiens, UniProt P32745); experiment: Binding affinity towards human Somatostatin receptor type 3 (sst3) using Tyr11-[125I]-SRIF as radioligand was determined in CHO cells
Sequence (P32745 whole entry): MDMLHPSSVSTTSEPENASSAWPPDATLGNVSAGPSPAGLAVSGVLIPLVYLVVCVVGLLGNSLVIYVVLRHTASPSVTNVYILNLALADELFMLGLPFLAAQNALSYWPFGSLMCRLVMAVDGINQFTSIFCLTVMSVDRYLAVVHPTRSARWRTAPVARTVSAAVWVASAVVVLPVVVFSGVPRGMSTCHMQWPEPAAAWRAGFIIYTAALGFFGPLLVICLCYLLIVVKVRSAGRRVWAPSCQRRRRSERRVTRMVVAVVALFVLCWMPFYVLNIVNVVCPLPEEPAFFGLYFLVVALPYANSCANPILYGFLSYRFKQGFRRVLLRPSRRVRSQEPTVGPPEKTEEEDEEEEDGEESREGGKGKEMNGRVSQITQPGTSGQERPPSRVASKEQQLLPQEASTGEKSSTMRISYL
Positions of bridges follow the written chain, without caps; N, C: chain ends. Residues, ends and D or L forms follow the SMILES beside them.
The quantity pKi is defined as the negative base-10 logarithm of the molar concentration.

COMPOUND | pKi
C[C@H](N)C(=O)NCC(=O)N[C@H]1CSSC[C@@H](C(N)=O)NC(=O)[C@H](CO)NC(=O)[C@H]([C@@H](C)O)NC(=O)[C@H](Cc2ccccc2)NC(=O)[C@H]([C@@H](C)O)NC(=O)[C@H](CCCCN)NC(=O)[C@H](Cc2c[nH]c3ccccc23)NC(=O)[C@H](Cc2ccccc2)NC(=O)[C@H](Cc2ccccc2)NC(=O)[C@H](C)NC(=O)[C@H](CCCCN)NC1=O (H-AGCKAFFWKTFTSC-NH2; disulfide 3-14) | 9.20

Proceeding to the next compound to report its pKi.
Any idea what its pKi is? The compound is "NCCCC[C@@H]1NC(=O)[C@@H](Cc2c[nH]c3ccccc23)NC(=O)[C@H](Cc2ccc(O)cc2)NC(=O)[C@@H]2C[C@@H](OC(=O)NCCN)CN2C(=O)[C@H](Cc2ccccc2)NC(=O)[C@H](Cc2ccc(OCc3ccccc3)cc2)NC1=O" 9.20
